tested on: Plasmodium falciparum; test: Antimalarial activity against chloroquine-sensitive Plasmodium falciparum NF54 assessed as inhibition of maturation of rings into schizonts stage; format: functional
Let's look at some compounds and their measured log10 of MIC.
quantity.measured: log10 of MIC (log10 of the value in µg/mL)

- compound: "CCN(CC)CCCC(C)Nc1ccnc2cc(Cl)ccc12 (stereo unspecified) [CHLOROQUINE]"
  log10 of MIC: -1.40
- compound: "CC(=O)O[C@@H]1CC[C@@]2(C)[C@H](CC[C@@H]3[C@@H]2C[C@H](OC(C)=O)[C@]2(C)[C@@H]([C@H](C)CNC(C)C)CC[C@@H]32)C1"
  log10 of MIC: 1.00
- compound: "NCCCNc1ccnc2cc(Cl)ccc12"
  log10 of MIC: 1.00
- compound: "CC(=O)O[C@@H]1CC[C@@]2(C)[C@H](CC[C@@H]3[C@@H]2C[C@H](OC(C)=O)[C@]2(C)[C@@H]([C@H](C)CCNCc4ccccc4)CC[C@@H]32)C1"
  log10 of MIC: 1.70
- compound: "CC(=O)O[C@@H]1CC[C@@]2(C)[C@H](CC[C@@H]3[C@@H]2C[C@H](OC(C)=O)[C@]2(C)[C@@H]([C@H](C)CNCc4ccccc4)CC[C@@H]32)C1"
  log10 of MIC: 0.30
- compound: "CC(=O)O[C@@H]1CC[C@@]2(C)[C@H](CC[C@@H]3[C@@H]2C[C@H](OC(C)=O)[C@]2(C)[C@@H]([C@H](C)CNCCCNc4ccnc5cc(Cl)ccc45)CC[C@@H]32)C1"
  log10 of MIC: -0.30
- compound: "CC(=O)O[C@@H]1CC[C@@]2(C)[C@H](CC[C@@H]3[C@@H]2C[C@H](OC(C)=O)[C@]2(C)[C@@H]([C@H](C)CNCCCCNc4ccnc5cc(Cl)ccc45)CC[C@@H]32)C1"
  log10 of MIC: 0.00
- compound: "NCCCCNc1ccnc2cc(Cl)ccc12"
  log10 of MIC: 0.30

====

system: Plasmodium falciparum; assay: Antimalarial activity against chloroquine-sensitive Plasmodium falciparum NF54 assessed as inhibition of maturation of rings into schizonts stage; type: functional

- item.smiles: "CCCCNC[C@@H](C)[C@H]1CC[C@H]2[C@@H]3CC[C@@H]4C[C@H](OC(C)=O)CC[C@]4(C)[C@H]3C[C@H](OC(C)=O)[C@]12C"
  MIC: "> 10 µg/mL"
- item.smiles: "CCCCNCC[C@@H](C)[C@H]1CC[C@H]2[C@@H]3CC[C@@H]4C[C@H](OC(C)=O)CC[C@]4(C)[C@H]3C[C@H](OC(C)=O)[C@]12C"
  MIC: "> 50 µg/mL"
- item.smiles: "CC(=O)O[C@@H]1CC[C@@]2(C)[C@H](CC[C@@H]3[C@@H]2C[C@H](OC(C)=O)[C@]2(C)[C@@H]([C@H](C)CCNC(C)C)CC[C@@H]32)C1"
  MIC: "> 50 µg/mL"
